I'd appreciate it if you could supply log10 MIC values for the items below.
Test system: Staphylococcus epidermidis
method_description: Antimicrobial activity against extended spectrum beta-lactamases-producing methicillin-sensitive Staphylococcus epidermidis 10-13 after 18-24 hrs by two-fold serial dilution method
Assay type: functional
Plainly stated, the numbers are log10 of MIC given in µg/mL.

Data request: Any idea what log10 MIC came out for CO/N=C1\CN(c2nc3c(cc2F)c(=O)c(C(=O)O)cn3C2CC2)CC1CN (configuration not stated) on Staphylococcus epidermidis?
Data returned: 0.00

Data request: Any idea what log10 MIC came out for CS(=O)(=O)O.NCC1CN(c2nc3c(cc2F)c(=O)c(C(=O)O)cn3C2CC2)C/C1=N\OCc1ccc2c(c1)OCCO2 (racemic) on Staphylococcus epidermidis?
Data returned: 0.30

Data request: Any idea what log10 MIC came out for CS(=O)(=O)O.NCC1CN(c2nc3c(cc2F)c(=O)c(C(=O)O)cn3C2CC2)C/C1=N\OCc1ccccc1 (racemic) on Staphylococcus epidermidis?
Data returned: -1.22

Data request: Any idea what log10 MIC came out for COc1cccc(OC)c1CO/N=C1\CN(c2nc3c(cc2F)c(=O)c(C(=O)O)cn3C2CC2)CC1CN.CS(=O)(=O)O (racemic) on Staphylococcus epidermidis?
Data returned: 0.30

Data request: Any idea what log10 MIC came out for COc1ccc(CO/N=C2\CN(c3nc4c(cc3F)c(=O)c(C(=O)O)cn4C3CC3)CC2CN)cc1.CS(=O)(=O)O (racemic) on Staphylococcus epidermidis?
Data returned: -1.52

Data request: Any idea what log10 MIC came out for CS(=O)(=O)O.NCC1CN(c2nc3c(cc2F)c(=O)c(C(=O)O)cn3C2CC2)C/C1=N\OCc1cc2c(cc1[N+](=O)[O-])OCO2 (racemic) on Staphylococcus epidermidis?
Data returned: 0.90

Data request: Any idea what log10 MIC came out for COc1cc(F)c(CO/N=C2\CN(c3nc4c(cc3F)c(=O)c(C(=O)O)cn4C3CC3)CC2CN)cc1OC.CS(=O)(=O)O (racemic) on Staphylococcus epidermidis?
Data returned: -1.52

###

Test system: Pseudomonas aeruginosa
method_description: Antimicrobial activity against Pseudomonas aeruginosa 10-12 after 18-24 hrs by two-fold serial dilution method
Type: functional
I'd appreciate it if you could supply MIC values for the items below.
Entry rule: numbers only, all in µg/mL.

Data request: Any idea what MIC came out for COc1cc(CO/N=C2\CN(c3nc4c(cc3F)c(=O)c(C(=O)O)cn4C3CC3)CC2CN)cc(Cl)c1OC.CS(=O)(=O)O (racemic) on Pseudomonas aeruginosa?
Data returned: 16

Data request: Any idea what MIC came out for CS(=O)(=O)O.NCC1CN(c2nc3c(cc2F)c(=O)c(C(=O)O)cn3C2CC2)C/C1=N\OCc1ccc2c(c1)OCCO2 (racemic) on Pseudomonas aeruginosa?
Data returned: 2

Data request: Any idea what MIC came out for CS(=O)(=O)O.Cc1ccc(CO/N=C2\CN(c3nc4c(cc3F)c(=O)c(C(=O)O)cn4C3CC3)CC2CN)cc1C (racemic) on Pseudomonas aeruginosa?
Data returned: 4

Data request: Any idea what MIC came out for COc1ccc(CO/N=C2\CN(c3nc4c(cc3F)c(=O)c(C(=O)O)cn4C3CC3)CC2CN)c(Cl)c1OC.CS(=O)(=O)O (racemic) on Pseudomonas aeruginosa?
Data returned: 16

Data provenance: ChEMBL document CHEMBL2062435
